Give PI3Kγ IH % @ 1 uM for every item shown.
# tested_system: p110γ (Homo sapiens)
# Sequence (P48736 whole entry): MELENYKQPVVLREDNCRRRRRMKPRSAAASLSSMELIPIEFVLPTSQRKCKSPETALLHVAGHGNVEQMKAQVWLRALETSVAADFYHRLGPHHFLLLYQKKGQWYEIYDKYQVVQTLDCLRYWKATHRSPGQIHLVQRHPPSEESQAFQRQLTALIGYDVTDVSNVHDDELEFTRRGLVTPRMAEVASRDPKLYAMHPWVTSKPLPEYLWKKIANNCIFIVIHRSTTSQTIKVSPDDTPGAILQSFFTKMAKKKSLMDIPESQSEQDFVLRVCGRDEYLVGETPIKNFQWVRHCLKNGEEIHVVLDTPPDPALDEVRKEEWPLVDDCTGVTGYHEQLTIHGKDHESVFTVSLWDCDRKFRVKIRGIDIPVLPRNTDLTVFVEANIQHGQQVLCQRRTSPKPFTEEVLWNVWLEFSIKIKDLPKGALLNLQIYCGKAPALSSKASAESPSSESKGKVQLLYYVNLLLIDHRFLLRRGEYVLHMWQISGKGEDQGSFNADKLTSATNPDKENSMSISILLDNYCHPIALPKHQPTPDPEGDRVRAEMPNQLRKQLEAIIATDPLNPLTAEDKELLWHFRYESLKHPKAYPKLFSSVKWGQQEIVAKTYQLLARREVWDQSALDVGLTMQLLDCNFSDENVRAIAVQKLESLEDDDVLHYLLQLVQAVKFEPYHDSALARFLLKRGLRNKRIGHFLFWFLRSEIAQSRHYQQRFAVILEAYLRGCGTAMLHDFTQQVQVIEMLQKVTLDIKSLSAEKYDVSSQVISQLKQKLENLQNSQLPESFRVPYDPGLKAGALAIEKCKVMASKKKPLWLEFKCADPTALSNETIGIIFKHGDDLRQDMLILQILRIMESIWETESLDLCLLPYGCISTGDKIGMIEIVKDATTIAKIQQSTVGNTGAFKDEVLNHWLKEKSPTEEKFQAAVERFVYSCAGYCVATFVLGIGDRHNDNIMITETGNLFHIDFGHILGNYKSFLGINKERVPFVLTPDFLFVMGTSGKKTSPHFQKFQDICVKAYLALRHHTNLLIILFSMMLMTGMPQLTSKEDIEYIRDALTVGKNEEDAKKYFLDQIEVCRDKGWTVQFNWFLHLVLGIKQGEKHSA
# experiment_notes: Transcreener KINASE Assay, kinase inhibition of p110γ
# Format: biochemical
# run_conditions: 1 uM test compound
Answers are plain numbers, in %.

Some entries whose results are on file:
N#Cc1c[nH]c2ncnc(N3CCC[C@H]3c3nn4ccc(CO)c4c(=O)n3-c3ccccc3)c12 [Compound 179]: 97.9
CC1(C)CN(c2nc(N)ncc2C#N)C1c1nn2ccc(Cl)c2c(=O)n1-c1ccccc1 (stereo not shown) [Compound 471]: 92.4
O=c1c2c(Cl)ccn2nc([C@@H]2C[C@H](O)CN2c2ncnc3[nH]cnc23)n1-c1ccccc1 [Compound 262]: 93.4

Lab note: each compound below needs its PI3Kγ IH % @ 1 uM filled in.
1. O=c1c2c(Cl)ccn2nc([C@@H]2C[C@@H](F)CN2c2ncnc3[nH]cnc23)n1-c1ccccc1 [Compound 47]
2. CC(Nc1ncnc2[nH]cc(C#N)c12)c1cc2ncc(Cl)n2c(=O)n1-c1ccccc1 (stereo not shown) [Compound 116]

Output:
84.7
96.9
